Molecular target: T1, recombinant human twin strep-tagged ROR2 extracellular domain (human, UniProt Q01974 34-403)
T1 construct: extracellular domain; Made in HEK293T, Streptactin purified; also called Human ROR2-TwinStrep; human ROR2
Assay: ELISA, IgG titrated on coated twin-strep human ROR2 ECD; fit printed as IC50
observed property: IC50 (µg/mL)
Expressed in µg/mL, but write only the number.

Entry ERR2-317 (mAb006) (antibody, human IgG1, V domains shown, Full-length chimeric rabbit/human IgG1, human IgH-gamma1 and IgL-kappa constant regions; C-terminal tags HC: LPETG-Strep, LC: G5SLPETG-Strep) VH: QSLEESGGRLVTPGTPLTLTCTASGFSLSSYDMIWVRQAPGKGLEYIGIINAGGNTYYASWAKGRFTISRTSTTVDLKMTSPTTEDTATYFCARGSSWTGDIWGPGTLVTVSS VL: DPVLTQTPSSTSAAVGGTVTIKCQASQSISSYLSWYQQKPGQPPKQLIYAASTLASGVPSRFKGSGSGTEYTLTISGVQREDAATYYCLGGYASASYQTAFGGGTKVEIK : reported IC50 = ?
1.35

For XBR2-401 (mAb003) (antibody, human IgG1, V domains shown, Full-length chimeric rabbit/human IgG1 (kappa) with C-terminal tags HC: LPETG-Strep, LC: G5SLPETG-Strep) VH: QSVKESEGGLFKPTDTLTLTCTVSGFSLSSYGVTWVRQAPGSGLEWIGYINTAGNTYYASWAKSRSTITRNTNENTVTLKMTSLTAADTATYFCARDWTSLNIWGPGTLVTVSS VL: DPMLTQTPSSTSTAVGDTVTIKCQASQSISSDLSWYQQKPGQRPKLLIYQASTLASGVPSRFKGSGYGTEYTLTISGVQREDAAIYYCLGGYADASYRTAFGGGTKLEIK , what is its reported IC50?
0.0505

Bench note: what IC50 did ERR2-308 (mAb037) (antibody, human IgG1, V domains shown, Full-length chimeric rabbit/human IgG1, human IgH-gamma1 and IgL-kappa constant regions; C-terminal tags HC: LPETG-Strep, LC: G5SLPETG-Strep) VH: QEQLEESGGRLVTPGTPLTLTCAVSGFSLSNYAMGWVRQAPGEGLEYIGWISAGGGAYYASWVNGRFTISKTSSTVDLKMTSLTAADTATYFCARGASNGCDLWGPGTLVTVSS VL: DPMLTQTPSSVSAVVGGTVTIKCQASQSITSWLSWYQQKPGQPPKLLIYGASHLASGVPSRFKGSGYGTEFTLTISGIQREDAATYYCLGGYSNSDIVFGGGTELEIL show?
0.467

Return reported IC50; argument: ERR2-Top35 (mAb130) (antibody, V domains shown) VH: QSVKESEGGLFKPMDTLTLTCTVSGFSLNTYGVSWVRQAPGNGLEWIGAVGSSGATNYASWAKSRSTITRNTNENTVTLKMTSLTAADTATYFCARDGYYSSGWGPYFSIWGPGTLVTVSS VL: SFVLTQPASVQVNLGQTVSLTCTAETLRSSYASWYQQKPGQAPVLLIYRDTSRPSGVPDRFSGSSSGNTATLTISGAQAGDEADYYCATSDGSGSRYYVFGGGTQLTVTG
0.0244
